Please provide measured IC50 for the entries that follow.
experimental-target: BRD4 (BD1+BD2) bromodomain (Homo sapiens (Human), UniProt O60885)
measurement-description: BRD4 binding inhibition (AlphaScreen, GST-BRD4 vs tetraacetylated histone H4 peptide)
settings: IC50, BRD4 binding inhibition, GST-BRD4 (BD1+BD2) / biotinylated acetyl-histone H4 (Lys5,8,12,16) peptide

Field request: IC50 | item: COc1ccc2c(c1)nc(NCCCCNC(=O)C(F)(F)C(F)(F)C(F)(F)F)c1nnc(C)n12
≤ 50 nM

Now give it for COc1ccc2c(c1)nc(NCCCCNC(=O)Oc1ccccc1)c1nnc(C)n12 too.
≤ 50 nM

Now give it for COCCOc1ccc2c(c1)nc(NCCCCNC(=O)Oc1ccccc1)c1nnc(C)n12 too.
≤ 10 nM

Now give it for Cc1nnc2c(NCCCCNC(=O)Oc3ccccc3)nc3cc4c(cc3n12)OCCO4 too.
≤ 10 nM

Now give it for COc1cc2nc(NCCCCNC(=O)Oc3ccccc3)c3nnc(C)n3c2cc1OC too.
≤ 50 nM
